Biological target: HCV NS3/4A protease complexes (full-length hepatitis C NS3 protease enzyme) (Hepatitis C virus genotype 1a, UniProt P27958)
Construct: full-length hepatitis C NS3 protease enzyme
Sequence (P27958 1027-1657, one chain of several): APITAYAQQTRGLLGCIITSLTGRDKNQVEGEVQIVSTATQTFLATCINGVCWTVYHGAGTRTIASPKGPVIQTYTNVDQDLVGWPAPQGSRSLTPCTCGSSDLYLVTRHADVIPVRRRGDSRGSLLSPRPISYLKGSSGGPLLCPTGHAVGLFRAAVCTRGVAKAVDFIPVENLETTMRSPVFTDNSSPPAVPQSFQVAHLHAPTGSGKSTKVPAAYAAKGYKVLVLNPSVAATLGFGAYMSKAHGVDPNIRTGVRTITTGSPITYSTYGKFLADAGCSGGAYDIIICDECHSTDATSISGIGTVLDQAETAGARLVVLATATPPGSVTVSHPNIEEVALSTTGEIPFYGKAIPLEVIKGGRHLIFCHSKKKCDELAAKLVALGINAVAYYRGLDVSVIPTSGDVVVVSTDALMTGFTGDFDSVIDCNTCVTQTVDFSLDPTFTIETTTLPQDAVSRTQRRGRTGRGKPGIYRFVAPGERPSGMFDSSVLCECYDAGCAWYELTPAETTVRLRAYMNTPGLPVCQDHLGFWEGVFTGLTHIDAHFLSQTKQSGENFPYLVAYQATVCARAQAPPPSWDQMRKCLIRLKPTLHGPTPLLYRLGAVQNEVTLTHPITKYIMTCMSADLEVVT
Experiment: Inhibition assay (enzyme assay), depsipeptide substrate hydrolysis with NS4A cofactor
Type: biochemical
Conditions: 1 nM enzyme, 25 μM NS4A cofactor, 0.5 μM substrate, 30° C.
pKi: −log10 of the molar value.
Readout Name: pKi

| Compound | Readout Name | Recorded Value |
| --- | --- | --- |
| COc1ccccc1NC(=O)O[C@@H]1C[C@H]2C(=O)N[C@]3(C(=O)NS(=O)(=O)C4CC4)C[C@H]3/C=C\CCCCN(C)C(=O)[C@@H]2C1 | pKi | 7.52 to 10.00 |
| CN1CCCCC=CC2CC2(C(=O)NS(=O)(=O)C2CC2)NC(=O)C2CC(OC(=O)Nc3ccccc3C#N)CC2C1=O (stereo not drawn) | pKi | 7.00 to 7.52 |
| CN1CCCC/C=C\[C@@H]2C[C@@]2(C(=O)NS(=O)(=O)C2CC2)NC(=O)[C@@H]2C[C@@H](OC(=O)Nc3ccccc3Oc3ccccc3)C[C@H]2C1=O | pKi | 7.52 to 10.00 |
